- Tested on: DC-3F/ADII
- run-description: Tumor cell growth inhibition in vitro
- Type: cell-based, hamster
- condition-label: DC-3F/ADII; listed as 15-aza-EpoB; read-out: IC50
reported-endpoint: IC50 (nM)
Reply numerically in nM, unit not repeated.

Exercise: Item C/C(=C\c1csc(C)n1)C1C[C@@H]2O[C@]2(C)CCC[C@H](C)[C@H](O)[C@@H](C)C(=O)C(C)(C)C(O)CC(=O)N1 (stereo partly shown) : provide IC50
Key: 288

----------
Would you kindly list pIC50 for each of these compounds?
- System: CCRF-CEM human T-cell acute lymphoblastic leukemia cells
- run-description: Tumor cell growth inhibition in vitro (XTT, 72 h)
- Type: cell-based
- condition-label: Homo sapiens, CCRF-CEM, 72 h, 72 h incubation
By convention, pIC50 is the negative base-10 log of a molar concentration.

Exercise: Name the recorded pIC50 of the item C/C1=C/CC(/C(C)=C/c2csc(C)n2)NC(=O)CC(O)C(C)(C)C(=O)[C@H](C)[C@@H](O)[C@@H](C)CCC1 (stereo partly drawn) [aza-dEpoB, 12,13,15-desoxy-15(S)-aza-epothilone B] in your answer.
Key: 7.56

Exercise: Read off the recorded pIC50 for C/C1=C/C[C@@H](/C(C)=C/c2csc(C)n2)OC(=O)C[C@H](O)C(C)(C)C(=O)[C@H](C)[C@@H](O)[C@@H](C)CCC1
Key: 8.02
